Examples of molecules with documented composite z-score follow.
- Test system: wheat germ agglutinin (Triticum aestivum), Alexa647-labelled
- procedure.text: Alexa647-WGA lectin binding to printed small molecules – biochemical, small-molecule microarray, 635/667 nm fluorescence, artefact control for SMM control-protein annotation, profiling panel (AID 1140);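 further: score merges 667 nm feature emission with signal to noise over triplicate slides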
- condition.description: WGA-A647 binding, 635 nm fluorescence, higher = more signal
Give your answer as a number; write no unit.

Sample answers from the record:
molecule | composite z-score
COc1cc2c(cc1OC)CN(C(=O)[C@H]1[C@@H]3C(=O)O[C@@H](c4ccccc4)[C@@H](c4ccccc4)N3[C@@H](c3ccccc3OCCO)[C@]13C(=O)Nc1ccc(C#CCCO)cc13)CC2 | 0.524
OB1C=CCC(CCc2ccccc2)O1 (stereo not drawn) | -0.477
C=CC[C@@]1(C(=O)N2CCCCC2)N=C(c2ccc(OCCCO)cc2)O[C@@H]1c1ccccc1N=[N+]=[N-] | 1.06
CCOC(=O)C[C@H]1[C@H](OC(=O)c2ccc(-c3ccccc3)cc2)[C@@H](NC(=O)c2ccccc2)c2cc(OCCCO)ccc2N1C(=O)Cc1ccc(OC)cc1 | -0.126
O=C(NCc1ccccc1)[C@@H]1c2ccccc2C(=O)N(C2Cc3ccccc3C2)[C@H]1c1ccc(CO)cc1 | 1.1

Let us examine a further case.
Measured composite z-score of O=C1C2C=CC(C(O)COCc3ccccc3)N(Nc3ccc([N+](=O)[O-])cc3)C2C(=O)N1c1ccccc1 (stereo not drawn) : 0.955

* * *

- procedure.text: basal CRE-LacZ reporter activity in PC12 – cell-based, unstimulated, primary screen (AID 1145)
- condition.description: no forskolin, luminescence, 4.5 h, higher = more signal, called active from +8 up or from −8 down
recorded.endpoint: z-score
Give your answer as a number; write no unit.

compound | z-score
C=C(CCCC)/C(=C/C[C@H](OC(C)=O)c1ccccc1OCCO)c1cnc2ccccc2c1 | 4.07

Measured z-score of `CC(C)CN1C(=O)[C@@]2(c3ccc([N+](=O)[O-])cc3)CC(=O)N(C3CCCCC3)[C@@H]2c2ccc(CO)cc21` : -0.502

* * *

- procedure.text: FRG1 expression reporter modulators in myotubes – cell-based, C2C12 myotubes, firefly/Renilla luciferase, luminescence, FRG1 inhibition for FSHD, primary screen (AID 1084)
- condition.description: FRG1 promoter luciferase, higher = more signal, called active from +8 up or from −8 down
The label depends only on z-score: yes if it is at least -0.3, no if it is smaller.

molecule | category.label
CN1CCC(CCCO)=CC1c1cccs1 (stereo not given) | yes
C=CC[C@]1(C(=O)N2CCOCC2)N=C(c2ccc(OCCCO)cc2)O[C@H]1c1ccccc1N=[N+]=[N-] | no

Problem: Test whether the molecule `Cc1ccc(/C=C/C=O)cc1` records z-score of -0.3 or higher.
Solution: yes

Problem: Test whether the molecule O=C1C2C=CC(C(O)c3cc(C(F)(F)F)cc(C(F)(F)F)c3)N(Nc3ccccc3)C2C(=O)N1c1ccccc1 (stereo not given) records z-score of -0.3 or higher.
Solution: yes

Problem: Test whether the molecule `CCCNC(=O)[C@@]1(Sc2ccc(C)cc2)CC(=O)N(Cc2ccccc2C(F)(F)F)[C@@H]1c1ccc(CO)cc1I` records z-score of -0.3 or higher.
Solution: yes

* * *

- procedure.text: blockers of DNA damage checkpoint Chk1 activation – imaging, HeLa, hydroxyurea, phospho-Chk1 nuclear intensity, primary screen (AID 1187); further: test concentration not given here
- condition.description: hydroxyurea-induced phospho-Chk1 immunofluorescence imaging, higher = more signal
Examples of compounds with documented z-score follow.
Give your answer as a number; write no unit.

compound | recorded.endpoint | reported.measurement
CC1CC/C=C\[C@H]2OC34C=CCN(Cc5ccccc5)C(=O)[C@H]3N(C(C)CO)C(=O)[C@@H]4C2C(=O)O1 (some centres not stated) | z-score | -0.602

Measured z-score of `CCCCCCc1nc(-c2ccc(-c3ccc(Cl)c(Cl)c3)o2)c(C)c2c1[Si](C(C)C)(C(C)C)OC2` : 0.251

Measured z-score of `CCOC(=O)C1=C[C@@H](C(C)C)N(S(=O)(=O)c2ccc(C)cc2)[C@H]1c1ccccc1F` : 0.969

Measured z-score of `COc1cc(CO)cc(I)c1O[C@H]1C=C(C(=O)NCCO)C[C@@H](N(C(=O)c2cc3ccccc3oc2=O)C2CCCCCC2)[C@@H]1O` : 0.722

Measured z-score of `COC(=O)C(CC#Cc1ccc2c(c1)[C@]1(C(=O)N2)[C@H](c2ccccc2OCCO)N2[C@H](c3ccccc3)[C@H](c3ccccc3)OC(=O)[C@H]2[C@@H]1C(N)=O)C(=O)OC` : 0.555

Measured z-score of `CN(C)CCCCCCNC(=O)[C@@H]1C[C@@H]2C(=O)N3CCC[C@H]3C(=O)N2[C@@H]1c1ccc(O)cc1` : -0.147

Measured z-score of C=CCC(OC(C)=O)[C@@H]1[C@@H](N(Cc2cc3ccccc3o2)C(=O)Cc2ccc(OC)cc2)c2cc(OCCCO)ccc2N1C(=O)c1ccc2ccccc2c1 (some centres not stated) : 0.877

* * *

- procedure.text: ATP-based viability of Huh7 replicon cells – cell-based, CellTiter-Glo luminescence, basal, 48 h, cytotoxicity control for HCV replication inhibitor project, primary screen (AID 1143);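 further: Huh7 hepatoma cells carrying a hepatitis C replication reporter with no stimulus; test concentration not given here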
- condition.description: higher = more signal, called active from +8 up or from −8 down
Class assignment keyed on z-score, ranges group A: < -1; group B: ≥ -1 and < -0.4; group C: ≥ -0.4

Problem: Which class holds CCCCCCCCCCC(O)C1C=CC2C(=O)NC(=O)C2N1Nc1ccc(Cl)cc1Cl (stereo unspecified) ?
Solution: group A

Problem: Which class holds `O=C(NCCN1CCOCC1)[C@@H]1c2ccccc2C(=O)N(Cc2cc(C(F)(F)F)cc(C(F)(F)F)c2)[C@H]1c1ccc(CO)cc1` ?
Solution: group C

Problem: Which class holds `CC(=O)NCCCC[C@@H]1NC(=O)[C@H]2C[C@@H](C(=O)O)[C@@H](c3ccc(O)cc3)N2C1=O` ?
Solution: group B

* * *

Examples of molecules with documented composite z-score follow.
- target.of.assay: Epidermal growth factor receptor (Homo sapiens) (UniProt P00533)
- Sequence (P00533 whole entry, looked up): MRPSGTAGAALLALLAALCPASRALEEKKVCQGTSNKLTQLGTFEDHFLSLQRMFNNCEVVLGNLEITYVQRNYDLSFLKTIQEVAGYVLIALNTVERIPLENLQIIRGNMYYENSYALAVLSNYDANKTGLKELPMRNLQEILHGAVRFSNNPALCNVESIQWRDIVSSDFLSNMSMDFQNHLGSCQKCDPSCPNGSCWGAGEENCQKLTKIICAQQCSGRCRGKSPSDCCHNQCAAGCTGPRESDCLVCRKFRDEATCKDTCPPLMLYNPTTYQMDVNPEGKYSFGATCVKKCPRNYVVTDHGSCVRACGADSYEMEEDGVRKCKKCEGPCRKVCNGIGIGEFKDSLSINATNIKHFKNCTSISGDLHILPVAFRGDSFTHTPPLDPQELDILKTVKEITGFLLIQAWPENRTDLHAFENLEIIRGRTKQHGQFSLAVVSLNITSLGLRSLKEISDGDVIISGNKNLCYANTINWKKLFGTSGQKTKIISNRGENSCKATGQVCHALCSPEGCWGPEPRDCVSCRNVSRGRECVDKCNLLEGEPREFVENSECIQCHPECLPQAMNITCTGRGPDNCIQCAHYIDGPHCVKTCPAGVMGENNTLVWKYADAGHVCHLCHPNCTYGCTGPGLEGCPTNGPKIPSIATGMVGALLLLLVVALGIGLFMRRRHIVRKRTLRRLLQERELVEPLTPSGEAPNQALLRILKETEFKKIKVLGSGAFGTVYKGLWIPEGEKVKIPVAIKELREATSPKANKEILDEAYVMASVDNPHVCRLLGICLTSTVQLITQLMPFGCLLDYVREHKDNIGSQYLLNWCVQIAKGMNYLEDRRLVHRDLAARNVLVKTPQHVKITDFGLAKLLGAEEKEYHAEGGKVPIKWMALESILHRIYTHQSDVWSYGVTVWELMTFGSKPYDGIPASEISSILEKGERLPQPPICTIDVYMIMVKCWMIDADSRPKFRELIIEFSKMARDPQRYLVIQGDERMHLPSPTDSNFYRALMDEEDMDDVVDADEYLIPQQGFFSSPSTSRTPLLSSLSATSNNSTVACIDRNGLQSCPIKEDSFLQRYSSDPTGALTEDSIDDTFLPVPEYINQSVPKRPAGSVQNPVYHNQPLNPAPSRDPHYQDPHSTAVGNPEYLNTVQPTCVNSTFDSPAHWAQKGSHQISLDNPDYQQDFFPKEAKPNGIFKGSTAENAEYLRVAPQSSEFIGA
- procedure.text: compounds binding epidermal growth factor receptor – biochemical, small-molecule microarray, 635 nm fluorescence, primary screen (AID 1104);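 further: score merges 667 nm emission intensity with spot signal to noise over triplicate slides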
- condition.description: EGFR binding, higher = more signal
Give your answer as a number; write no unit.

Sample answers from the record:
molecule | composite z-score
COc1ccc(NC(=O)O[C@H]2[C@H](OC(=O)c3cc4ccccc4[nH]3)[C@@H](OC(=O)c3cc4ccccc4[nH]3)[C@@H](OC)O[C@@H]2CO)cc1 | -0.245
CCN(CC)c1ccc(N2CC=CC34O[C@@H]5C=CCOC(=O)[C@@H]5[C@H]3C(=O)N(CCCCCCO)[C@@H]4C2=O)cc1 (stereo partly specified) | -0.366
CCOC(=O)C1=C[C@@H](C(C)C)N(S(=O)(=O)c2ccc(C)cc2)[C@H]1c1ccccc1F | 0.6

Measured composite z-score of `O=c1cccc(-c2ccccc2Cl)o1` : 0.0031

Measured composite z-score of `COCCCNC(=O)[C@@H]1c2ccccc2C(=O)N(Cc2ccccc2OC)[C@H]1c1ccc(CO)cc1` : 0.238

Measured composite z-score of `CC[C@@H]1C=C(C(=O)O)[C@H](c2cccc3ccccc23)N1S(=O)(=O)c1ccc(C)cc1` : 0.294

* * *

- target.of.assay: Calmodulin-1 (Homo sapiens)
- procedure.text: small molecules binding Ca-loaded calmodulin-1 – biochemical, small-molecule microarray, Cy5-labelled CALM1, plus calcium, artefact control for SMM control-protein annotation, profiling panel (AID 1112);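 further: score merges spot fluorescence with signal to noise from triplicate slides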
- condition.description: Cy5-CALM1 binding fluorescence, higher = more signal
The label depends only on composite z-score: YES if it is at least 0.004, NO if it is smaller.

Problem: Test whether the compound `C#CCN1[C@@H](Cc2ccc(O)cc2)C(=O)O[C@H](Cc2ccccc2)[C@@H]1/C=C/C1CC1` records composite z-score of 0.004 or higher.
Solution: NO

Problem: Test whether the compound O=C1NC(=O)C2C1C=CC(C(O)c1ccc(I)cc1)N2Nc1ccccn1 (stereo not given) records composite z-score of 0.004 or higher.
Solution: YES

Problem: Test whether the compound `COc1ccc([C@H]2OC[C@@H]3CCC(=O)N32)cc1` records composite z-score of 0.004 or higher.
Solution: NO

Problem: Test whether the compound `CC(=O)Nc1cc(Br)ccc1C(=O)NCc1ccccc1` records composite z-score of 0.004 or higher.
Solution: YES

* * *

- target.of.assay: Pro-neuregulin-1, membrane-bound isoform (Homo sapiens) (UniProt Q02297)
- Sequence (Q02297 whole entry, looked up, canonical isoform): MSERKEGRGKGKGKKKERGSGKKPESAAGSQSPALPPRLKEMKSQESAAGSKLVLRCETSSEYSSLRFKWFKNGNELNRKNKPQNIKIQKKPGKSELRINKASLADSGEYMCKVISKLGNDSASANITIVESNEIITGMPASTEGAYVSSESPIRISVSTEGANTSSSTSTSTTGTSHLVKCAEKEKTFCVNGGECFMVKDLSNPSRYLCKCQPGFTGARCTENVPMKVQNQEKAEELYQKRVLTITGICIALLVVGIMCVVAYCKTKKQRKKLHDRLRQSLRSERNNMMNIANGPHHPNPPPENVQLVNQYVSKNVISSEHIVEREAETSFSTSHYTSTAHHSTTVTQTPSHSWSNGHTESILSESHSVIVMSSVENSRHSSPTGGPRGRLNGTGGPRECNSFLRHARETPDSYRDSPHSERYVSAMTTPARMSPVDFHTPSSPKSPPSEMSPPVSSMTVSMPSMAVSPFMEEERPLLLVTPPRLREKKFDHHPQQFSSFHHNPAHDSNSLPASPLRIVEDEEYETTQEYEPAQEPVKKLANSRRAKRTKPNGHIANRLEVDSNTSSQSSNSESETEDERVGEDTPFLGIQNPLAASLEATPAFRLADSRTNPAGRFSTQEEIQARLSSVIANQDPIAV
- procedure.text: small molecules binding neuregulin-1 protein – biochemical, small-molecule microarray, fluorescence 635/667, psychiatric disease protein project, primary screen (AID 1075);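 further: score combines 667 nm spot fluorescence with signal to noise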
- condition.description: NRG1 binding, 635 nm fluorescence, higher = more signal
recorded.endpoint: composite z-score

Sample answers from the record:
compound | composite z-score
COCCCNC(=O)[C@@]1(Cc2ccccc2)N=C(c2ccc(OCCCO)cc2)O[C@H]1c1ccccc1CN=[N+]=[N-] | 1.74
COCCOC(=O)N1C(=O)[C@@]2(c3cc(C#CC4(O)CCCCCC4)ccc31)[C@H](C(=O)Nc1nc3ccccc3s1)[C@H]1C(=O)O[C@H](c3ccccc3)[C@H](c3ccccc3)N1[C@@H]2c1ccc(OCCO)cc1 | 0.727
COc1cc(CO)cc(I)c1O[C@H]1C=C(C(=O)NCCO)C[C@@H](NC[C@@H]2CCCO2)[C@@H]1O | 0.625

Measured composite z-score of `COc1ccc([Si](C)(C)[C@@H]2[C@@H](CCn3cc([C@H](O)c4ccccc4)nn3)O[C@]3(C(=O)N(Cc4cccc(N5CCC5=O)c4)c4ccccc43)[C@H]2C)cc1` : 0.292

Measured composite z-score of `CO[C@H]1O[C@H](CO)[C@@H](OC(=O)Nc2ccc(Br)cc2)[C@@H]2OC(=O)[C@H](Cc3cccc(Br)c3)C/C=C/C[C@@H](Cc3cccc(Br)c3)C(=O)O[C@@H]12` : 0.72

Measured composite z-score of O=C1NC(=O)C2C1C=CC(C(O)c1ccc(I)cc1)N2Nc1ccccn1 (configuration not stated) : 1.71

Measured composite z-score of CCN(CC)c1ccc(N2CC=CC34O[C@@H]5/C=C\CCC(C)OC(=O)C5[C@H]3C(=O)N(CCCCCO)[C@@H]4C2=O)cc1 (some centres not stated) : -0.551
